Experimental target: mouse GOAT (Mus musculus, UniProt P0C7A3)
Construct: made in house; host or cells: sf9 insect cells (baculovirus, pFastBac1-mouseGOAT); total membrane fraction, not purified
Sequence (P0C7A3 1-435): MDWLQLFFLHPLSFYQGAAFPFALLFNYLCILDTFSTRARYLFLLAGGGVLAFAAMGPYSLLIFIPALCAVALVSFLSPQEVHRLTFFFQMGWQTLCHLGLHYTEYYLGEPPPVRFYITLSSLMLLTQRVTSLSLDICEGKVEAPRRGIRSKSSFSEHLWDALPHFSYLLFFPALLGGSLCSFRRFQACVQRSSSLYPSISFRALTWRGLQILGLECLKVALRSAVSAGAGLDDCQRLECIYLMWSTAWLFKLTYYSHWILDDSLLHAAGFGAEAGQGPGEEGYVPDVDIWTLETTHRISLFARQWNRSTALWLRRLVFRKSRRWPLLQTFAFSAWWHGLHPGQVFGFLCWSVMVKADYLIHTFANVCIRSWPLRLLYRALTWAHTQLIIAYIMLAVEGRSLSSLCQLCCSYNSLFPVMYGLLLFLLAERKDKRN
Method summary: Acyltransferase assay: inhibition of proghrelin octanoylation by GOAT in sf9 membrane fractions
Format: biochemical
Run conditions: membrane fractions
Experimental: pFastBac1-mouseGOAT and pGEX-GST-proGhrelin8His plasmid encoding for mouse proghrelin, fused to GST with TEV cleavage site to release proghrelin moiety, was a kind gift from the Brown and Goldstein laboratory. […] About 50 mg of target protein, as evaluated by SDS-PAGE, was eluted. […] The protein was quantified by absorbance at A280 and qualified by SDS-PAGE. […]
Recorded metric: GOAT inhibition in vitro (in words)

>>> result("C[C@H](NC(=O)c1ccnn1C)C(=O)N1CCC(CCCc2cc(N)c3nonc3n2)CC1")
"significantly impaired"
>>> result("CCCCOCC(=O)N1CCC(/C=C\\c2c(C)nc3nonc3c2N)CC1")
"significantly impaired"

---

Test system: acyl ghrelin secretion from INS-1 cells (INS/GOAT/GHRL cell line)
Method summary: INS-1 cellular assay: secreted acyl-ghrelin from INS/GOAT/GHRL cell line measured with ELISA
Assay type: cell-based, mouse
Run conditions: INS1, acyl-ghrelin secretion, read-out: in-house INS-1 IC50
pIC50: −log10 of the molar value.
Recorded pIC50 by entry
Recorded metric: pIC50

>>> numeric_readout("Cc1nc2nonc2c(N)c1CCC1CCN(C(=O)[C@H](C)NC(=O)c2ccnn2C)CC1")
6.80
>>> numeric_readout("CNC(=O)c1cccc(Cc2c(C)nc3nonc3c2N)n1 [compound 6, reference compound]")
6.27
>>> numeric_readout("Cc1nc(Cl)nc(N)c1CCC1CCN(C(=O)[C@H](C)NC(=O)c2ccnn2C)CC1")
6.17

---

Experimental target: mouse GOAT (Mus musculus)
Sequence (P0C7A3 1-435): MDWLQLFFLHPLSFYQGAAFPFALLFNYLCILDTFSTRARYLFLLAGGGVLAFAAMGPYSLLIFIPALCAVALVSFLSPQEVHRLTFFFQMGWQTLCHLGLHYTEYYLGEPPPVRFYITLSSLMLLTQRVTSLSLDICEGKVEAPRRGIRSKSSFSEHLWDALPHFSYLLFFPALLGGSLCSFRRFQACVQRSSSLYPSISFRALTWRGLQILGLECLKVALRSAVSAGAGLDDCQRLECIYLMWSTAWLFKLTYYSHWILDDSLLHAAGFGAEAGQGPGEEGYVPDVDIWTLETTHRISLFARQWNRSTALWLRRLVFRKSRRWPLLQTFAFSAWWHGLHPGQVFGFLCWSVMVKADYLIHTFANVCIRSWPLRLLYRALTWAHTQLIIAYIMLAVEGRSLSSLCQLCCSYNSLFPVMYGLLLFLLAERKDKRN
Where a SMILES comes first, the peptide text is derived from it. [ ]: non-standard residue; d: D form. The star is where a group is joined. Tle = CC(C)(C)[C@H](N)C(=O)O; Octanoyl = CCCCCCCC(=O)*; Dap = NC[C@H](N)C(=O)O; Sar = CNCC(=O)O
Below, each of the compounds is paired with its reported IC50 value.
Recorded metric: IC50

>>> result("CCCCCCCC(=O)NC[C@H](NC(=O)[C@@H](NC(=O)CNC)C(C)(C)C)C(=O)N[C@@H](Cc1ccccc1)C(=O)N[C@@H](CC(C)C)C(N)=O [compound 13] (H-[Sar][Tle][Dap](Octanoyl)FL-NH2)")
"50 nM"
>>> result("CCCCCCCC(=O)NC[C@H](NC(=O)[C@@H](NC(=O)CNC)C(C)(C)C)C(=O)N[C@@H](Cc1ccccc1)C(=O)N[C@@H](CC(C)C)C(=O)N[C@@H](CO)C(N)=O [compound 14] (H-[Sar][Tle][Dap](Octanoyl)FLS-NH2)")
"62 nM"
>>> result("CCCCCCCC(=O)NC[C@H](NC(=O)[C@@H](NC(=O)CNC)C(C)(C)C)C(N)=O [compound 12] (H-[Sar]-[Tle]-[Dap](Octanoyl)-NH2)")
"> 1000 nM"

Hey, just so you know, these numbers are from paper PMC8709388.
